// reported Population Membrane Permeable-Phenotype (%) per item
- Tested on: U2OS
- test details: Multiplex assay against U2OS
- Type: toxicity, cell-based
- condition set: human, 48 h, 1 µM, compound concentration 1 uM, replicate 1

Examples with their reported Population Membrane Permeable-Phenotype (%) follow.
# compound, result
records = [
    ("CN1CCN(c2ccc(OC(F)(F)F)c(Nc3ncc4c(n3)-c3c(c(C(N)=O)nn3CCO)CC4)c2)CC1 [ONVANSERTIB]", "14%"),
    ("Cl.N#Cc1ccc2[nH]cc(CCCCN3CCN(c4ccc5oc(C(N)=O)cc5c4)CC3)c2c1 [VILAZODONE HYDROCHLORIDE]", "8%"),
    ("COc1cccc([C@@H](C)NCCCc2ccccc2Cl)c1.Cl [TECALCET HYDROCHLORIDE]", "8%"),
]

*Q* What Population Membrane Permeable-Phenotype (%) value was documented for this compound, Cc1[nH]c(/C=C2\C(=O)Nc3ccc(S(=O)(=O)N(C)c4cccc(Cl)c4)cc32)c(C)c1C(=O)N1CCN(C)CC1 ?
*A* 10%

---

// reported Population Fragmented Nuclei (%) per item
- Test system: U2OS
- test details: Multiplex assay against U2OS
- Format: toxicity, cell-based
- condition set: human, 48 h, 1 µM, compound concentration 1 uM, replicate 2
Write down the numeric answer in % and omit the unit.

# molecule, quantitative readout
records = [
    ("CN(C)CC#Cc1ccc(OCCCc2sc(N3CCc4cccc(C(=O)Nc5nc6ccccc6s5)c4C3)nc2C(=O)O)c(F)c1 [A-1155463]", 28),
    ("CN1CCCC(n2nc(Cc3ccc(Cl)cc3)c3ccccc3c2=O)CC1.Cl (stereo not drawn) [AZELASTINE HYDROCHLORIDE]", 11),
    ("COc1cccc([C@@H](C)NCCCc2ccccc2Cl)c1.Cl [TECALCET HYDROCHLORIDE]", 6),
    ("Cl.N#Cc1ccc2[nH]cc(CCCCN3CCN(c4ccc5oc(C(N)=O)cc5c4)CC3)c2c1 [VILAZODONE HYDROCHLORIDE]", 12),
    ("C[C@@H](NCCCc1cccc(C(F)(F)F)c1)c1cccc2ccccc12.Cl [CINACALCET HYDROCHLORIDE]", 14),
    ("COc1cc(-n2cnc3cc(-c4ccc(Cl)cc4)sc3c2=O)ccc1OCCN1CCCC1", 12),
]

*Q* Write down the reported Population Fragmented Nuclei (%) of CN1CCN(CCOc2cc(OC3CCOCC3)c3c(Nc4c(Cl)ccc5c4OCO5)ncnc3c2)CC1 [SARACATINIB] , test system: U2OS.
*A* 10

*Q* # iterate: Cc1nc(-c2ccc(-c3ccc(C(=O)N4CCc5cc6c(cc54)C4(CCN(C)CC4)CO6)cc3)c(C)c2)no1 [SB-224289]
*A* 9

---

- System: Fibroblast
- test details: Multiplex assay against human fibroblast
- Format: toxicity, cell-based
- condition set: 12 h, 10 µM, compound concentration 10 uM, replicate 1
measure name: Population Tubulin-Different-Phenotype (%)
Answer with the value and then the unit.

Examples with their reported Population Tubulin-Different-Phenotype (%) follow.
# compound, target under test, result
measured = [
    ("Cl.N#Cc1ccc2[nH]cc(CCCCN3CCN(c4ccc5oc(C(N)=O)cc5c4)CC3)c2c1 [VILAZODONE HYDROCHLORIDE]", "Fibroblast", "52%"),
    ("Cc1c(-c2ccc(O)cc2)n(Cc2ccc(OCCN3CCCCCC3)cc2)c2ccc(O)cc12 [BAZEDOXIFENE]", "Fibroblast", "85%"),
    ("CCN(CC)CCCCNc1ncc2cc(-c3cc(OC)cc(OC)c3)c(NC(=O)NC(C)(C)C)nc2n1 [PD-173074]", "Fibroblast", "6%"),
    ("COc1cccc([C@@H](C)NCCCc2ccccc2Cl)c1.Cl [TECALCET HYDROCHLORIDE]", "Fibroblast", "71%"),
    ("CC(C)(O)CNc1ncc(-c2ccnc(Nc3ccnc(Cl)c3)n2)c(CC2CC2)n1", "Fibroblast", "90%"),
    ("C=CC(=O)Nc1cc2c(Nc3ccc(F)c(Cl)c3)ncnc2cc1OCCCN1CCOCC1.Cl.Cl [CANERTINIB DIHYDROCHLORIDE]", "Fibroblast", "20%"),
    ("COc1ncc(-c2ccc3nccc(-c4ccnnc4)c3c2)cc1NS(=O)(=O)c1ccc(F)cc1F [OMIPALISIB]", "Fibroblast", "73%"),
    ("CN(C)C(=O)N[C@H]1CC[C@H](CCN2CCN(c3cccc(Cl)c3Cl)CC2)CC1.Cl [CARIPRAZINE HYDROCHLORIDE]", "Fibroblast", "92%"),
]

*Q* What Population Tubulin-Different-Phenotype (%) value was documented for this compound, COc1cc(-n2cnc3cc(-c4ccc(Cl)cc4)sc3c2=O)ccc1OCCN1CCCC1 ?
*A* 87%

---

- System: Fibroblast
- test details: Multiplex assay against human fibroblast
- Type: toxicity, cell-based
- condition set: 48 h, 10 µM, compound concentration 10 uM, replicate 1
// reported Population Hoechst High Intensity Objects (%) per item
Write down the numeric answer in % and omit the unit.

Examples with their reported Population Hoechst High Intensity Objects (%) follow.
# molecule, target under test, scale unit, quantitative readout
records = [
    ("CN(C)CC#Cc1ccc(OCCCc2sc(N3CCc4cccc(C(=O)Nc5nc6ccccc6s5)c4C3)nc2C(=O)O)c(F)c1 [A-1155463]", "Fibroblast", "%", 10),
    ("c1cn2cc(-c3ccc4cn[nH]c4c3)nc(Nc3ccc(N4CCOCC4)cc3)c2n1 [ENTOSPLETINIB]", "Fibroblast", "%", 47),
    ("C=CC(=O)Nc1ccc2ncnc(Nc3ccc(OCc4cccc(F)c4)c(Cl)c3)c2c1.Cc1ccc(S(=O)(=O)O)cc1", "Fibroblast", "%", 18),
    ("COc1ncc(-c2ccc3nccc(-c4ccnnc4)c3c2)cc1NS(=O)(=O)c1ccc(F)cc1F [OMIPALISIB]", "Fibroblast", "%", 17),
    ("CN1CCC[C@@H]1CCO[C@](C)(c1ccccc1)c1ccc(Cl)cc1.O=C(O)/C=C/C(=O)O [CLEMASTINE FUMARATE]", "Fibroblast", "%", 24),
]

*Q* What Population Hoechst High Intensity Objects (%) value was documented for this molecule, Cl.N#Cc1ccc2[nH]cc(CCCCN3CCN(c4ccc5oc(C(N)=O)cc5c4)CC3)c2c1 [VILAZODONE HYDROCHLORIDE] ?
*A* 38

*Q* # iterate: CCOCCn1cc(C(=O)Nc2ccc(-n3nc(-c4cccnc4)cc3C(F)(F)F)cn2)ccc1=O [BI 1935]
*A* 22

---

- Test system: HEK-293T
- test details: Multiplex assay against HEK293T
- Assay type: toxicity, cell-based
- condition set: human, 24 h, 1 µM, compound concentration 1 uM, replicate 2
measure name: Population Mitochondria Different-Phenotype (%)
Write down the numeric answer in % and omit the unit.

# compound, scale unit, quantitative readout
rows = [
    ("NC(=O)Nc1cc(-c2cccc(F)c2)sc1C(=O)N[C@H]1CCCNC1 [AZD-7762]", "%", 33),
    ("Cc1[nH]c(/C=C2\\C(=O)Nc3ccc(S(=O)(=O)N(C)c4cccc(Cl)c4)cc32)c(C)c1C(=O)N1CCN(C)CC1", "%", 57),
    ("C=CC(=O)Nc1ccc2ncnc(Nc3ccc(OCc4cccc(F)c4)c(Cl)c3)c2c1.Cc1ccc(S(=O)(=O)O)cc1", "%", 19),
    ("CCN(CC)CCCCNc1ncc2cc(-c3cc(OC)cc(OC)c3)c(NC(=O)NC(C)(C)C)nc2n1 [PD-173074]", "%", 20),
    ("Cc1nc(Nc2n[nH]c3c2CN(C(=O)N[C@H](CN(C)C)c2ccccc2)C3(C)C)c2sccc2n1 [PF-03758309]", "%", 11),
    ("CNc1nc(NCc2ccc(NS(C)(=O)=O)cc2Cl)cc(-c2ccccn2)n1", "%", 14),
    ("C[C@@H](NCCCc1cccc(C(F)(F)F)c1)c1cccc2ccccc12.Cl [CINACALCET HYDROCHLORIDE]", "%", 47),
    ("C[C@@]1(C(=O)Nc2ccc(F)nc2)CCCN1c1nc(Nc2cc(C3CC3)n[nH]2)c2cccn2n1 [BMS-754807]", "%", 44),
]

*Q* What Population Mitochondria Different-Phenotype (%) value was documented for this compound, COc1ncc(-c2ccc3nccc(-c4ccnnc4)c3c2)cc1NS(=O)(=O)c1ccc(F)cc1F [OMIPALISIB] ?
*A* 40

*Q* # iterate: CN1CCC[C@@H]1CCO[C@](C)(c1ccccc1)c1ccc(Cl)cc1.O=C(O)/C=C/C(=O)O [CLEMASTINE FUMARATE]
*A* 56

*Q* # iterate: CC[C@H](C)C(=O)O[C@H]1C[C@@H](C)C=C2C=C[C@H](C)[C@H](CC[C@@H]3C[C@@H](O)CC(=O)O3)[C@H]21 [LOVASTATIN]
*A* 13
